These measurements were taken from paper PMC10814857.

pKd: −log10 of the molar value. Peptide text beside a SMILES is read from it.
As an illustration, consider measured pKd for molecules on ABL2 SH3 domain (aa 107-167) (Homo sapiens, UniProt P42684).
Sequence (P42684 107-167): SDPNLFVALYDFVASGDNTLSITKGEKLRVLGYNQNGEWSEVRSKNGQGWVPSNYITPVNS

molecule="CC[C@H](C)[C@H](NC(=O)[C@H](C)NC(=O)[C@@H]1CCCN1C(=O)[C@@H]1CCCN1C(=O)[C@H](CO)NC(=O)[C@H](CC(=O)O)NC(=O)[C@@H](N)CC(C)C)C(=O)N1CCC[C@H]1C(=O)N1CCC[C@H]1C(=O)N[C@@H](CCCNC(=N)N)C(=O)N[C@@H](CCC(N)=O)C(=O)N1CCC[C@H]1C(=O)N[C@H](C(=O)N[C@@H](CO)C(=O)N[C@@H](CCCCN)C(=O)O)[C@@H](C)O [Peptide P4] (H-LDSPPAIPPRQPTSK-OH)" result=3.90

// query // fetch pKd; item: CC(C)C[C@H](NC(=O)[C@@H]1CCCN1C(=O)[C@@H](NC(=O)[C@H](CCCNC(=N)N)NC(=O)[C@@H]1CCCN1C(=O)[C@H](CO)NC(=O)[C@H](CC(N)=O)NC(=O)[C@@H]1CCCN1C(=O)[C@H](C)NC(=O)[C@@H](N)CO)[C@@H](C)O)C(=O)N[C@H](C(=O)N1CCC[C@H]1C(=O)N1CCC[C@H]1C(=O)N1CCC[C@H]1C(=O)N[C@@H](C)C(=O)N[C@@H](CO)C(=O)O)[C@@H](C)O [Peptide P1] (H-SAPNSPRTPLTPPPAS-OH) ; system: ABL2 SH3 domain (aa 107-167) (Homo sapiens, UniProt P42684)
// result < 3.70

// query // fetch pKd; item: CC(C)[C@H](N)C(=O)N1CCC[C@H]1C(=O)N[C@H](C(=O)N1CCC[C@H]1C(=O)N1CCC[C@H]1C(=O)N1CCC[C@H]1C(=O)N[C@H](C(=O)N1CCC[C@H]1C(=O)N1CCC[C@H]1C(=O)N[C@@H](CCCNC(=N)N)C(=O)N[C@@H](CCCNC(=N)N)C(=O)N[C@@H](CCCNC(=N)N)C(=O)O)C(C)C)C(C)C [RP1, reference compound] ; system: ABL2 SH3 domain (aa 107-167) (Homo sapiens, UniProt P42684)
// result 4.96

// query // fetch pKd; item: CC(C)C[C@H](NC(=O)[C@@H](NC(=O)[C@@H](N)C(C)C)[C@@H](C)O)C(=O)N1CCC[C@H]1C(=O)N[C@@H](Cc1c[nH]cn1)C(=O)NCC(=O)N1CCC[C@H]1C(=O)N[C@@H](CCCNC(=N)N)C(=O)N[C@@H](CO)C(=O)N[C@@H](C)C(=O)O [Peptide P2] (H-VTLPHGPRSA-OH) ; system: ABL2 SH3 domain (aa 107-167) (Homo sapiens, UniProt P42684)
// result < 3.70

// query // fetch pKd; item: CC(C)[C@H](NC(=O)[C@@H]1CCCN1C(=O)[C@@H]1CCCN1C(=O)[C@H](C)NC(=O)[C@H](CCC(=O)O)NC(=O)[C@H](CS)NC(=O)[C@@H](N)CCCNC(=N)N)C(=O)N1CCC[C@H]1C(=O)N1CCC[C@H]1C(=O)N[C@@H](CCCNC(=N)N)C(=O)N[C@@H](CCCNC(=N)N)C(=O)N[C@@H](CCC(=O)O)C(=O)N[C@@H](CCCNC(=N)N)C(=O)NCC(=O)O [RP2, reference compound] (H-RCEAPPVPPRRERG-OH) ; system: ABL2 SH3 domain (aa 107-167) (Homo sapiens, UniProt P42684)
// result < 3.70

// query // fetch pKd; item: CC[C@H](C)[C@H](N)C(=O)N[C@@H](C)C(=O)NCC(=O)N1CCC[C@H]1C(=O)N1CCC[C@H]1C(=O)N[C@H](C(=O)N1CCC[C@H]1C(=O)N1CCC[C@H]1C(=O)N[C@@H](CCCNC(=N)N)C(=O)N[C@@H](CCC(N)=O)C(=O)N[C@@H](CO)C(=O)O)C(C)C [Peptide P9] (H-IAGPPVPPRQS-OH) ; system: ABL2 SH3 domain (aa 107-167) (Homo sapiens, UniProt P42684)
// result < 3.70
